tested on: K562; assay: Cytotoxicity against human K562 cells after 24 hrs by MTT assay; assay type: functional, cell-based; conditions: K562, 24 h
ENDPOINT LABEL: IC50 (µM)
The reply should be a number in µM, with the unit left off.

Cc1ccc2nc(-c3ccccc3O)c(CO)cc2c1 = 12
O=c1oc2ccccc2c2nc3ccc(F)cc3cc12 = 37
OCc1cc2cc(F)c(F)cc2nc1-c1ccccc1O = 12

q: Quick check: IC50 of "Cc1ccc2nc3c(cc2c1)c(=O)oc1ccccc13" ?
a: 23

q: Which IC50 is listed for "CS(=O)(=O)N(Cc1cn(Cc2cc3ccccc3nc2-c2ccccc2O)nn1)c1ccccc1I" ?
a: 13

q: Please look up its IC50: "O=c1oc2ccccc2c2nc3cc(F)c(F)cc3cc12"
a: 41

* * *

tested on: K562; experiment: Cytotoxicity against human K562 cells after 24 hrs by MTT assay; type: functional, cell-based; conditions: K562, 24 h
# IC50 binned as I (below 20 µM), II (20 µM to below 40 µM), III (40 µM or more)

Recorded results for 5 compounds are shown here.
[N-]=[N+]=NCc1cc2ccccc2nc1-c1ccccc1O = I
NS(=O)(=O)c1cc(C(=O)O)cc([N+](=O)[O-])c1NCc1cc2ccccc2nc1-c1ccccc1O = I
NCc1cc2ccccc2nc1-c1ccccc1O = II
OCc1cc2ccccc2nc1-c1ccccc1O = III
COc1cccc2cc3c(=O)oc4ccccc4c3nc12 = II

q: Pick a category. Item: "O=c1oc2ccccc2c2nc3c(F)c(F)ccc3cc12"
a: II

q: Bin? "O=c1oc2ccccc2c2nc3ccccc3cc12"
a: III

q: Using the reported IC50, which band applies to "O=c1oc2ccccc2c2nc3cc(Br)ccc3cc12" ?
a: II

q: Bin this entry: "OCc1cc2cc(Cl)ccc2nc1-c1ccccc1O"
a: I

q: Input "COc1ccc2c(c1)[nH]c1c(C)nccc12" ; output its category
a: III

q: Looking at "O=c1oc2ccccc2c2nc3ccc(Cl)cc3cc12" , which class would you pick?
a: II

q: Textbook exercise: identify the category of the compound given here, "O=c1oc2ccccc2c2nc3cc(F)ccc3cc12" , according to its measured value.
a: II

* * *

molecular target: NAD-dependent protein deacetylase sirtuin-1 (Homo sapiens); assay: Inhibition of human N-terminally hexa-his-tagged SIRT1 expressed in Escherichia coli BL21 (DE3) at 10 uM after 15 mins by […]
ENDPOINT LABEL: inhibition

CS(=O)(=O)N(Cc1cn(Cc2cc3ccccc3nc2-c2ccccc2O)nn1)c1ccccc1I = 62%
NS(=O)(=O)c1cc(C(=O)O)cc([N+](=O)[O-])c1NCc1cc2ccccc2nc1-c1ccccc1O = 61%
OCc1cc2cc(F)c(F)cc2nc1-c1ccccc1O = 48%

q: Requested read-out inhibition, target or system NAD-dependent protein deacetylase sirtuin-1 (Homo sapiens), entry "NCc1cc2ccccc2nc1-c1ccccc1O"
a: 59%

q: Field: inhibition (NAD-dependent protein deacetylase sirtuin-1 (Homo sapiens)). Entry: "O=c1oc2ccccc2c2nc3c(F)c(F)ccc3cc12"
a: 48%

q: Find the measured inhibition: item "[N-]=[N+]=NCc1cc2ccccc2nc1-c1ccccc1O" , target or system NAD-dependent protein deacetylase sirtuin-1 (Homo sapiens).
a: 53%
